# protocol_notes: activity coefficient (dimensionless); of the first substance listed, at infinite dilution; xn = mol fraction of the nth substance listed
# test_context: 333 K; 101.33 kPa; Liquid; Chromatography; x1 = 0
# strict inequality: activity coefficient < 1 yields MET, everything else yields NOT MET

Prompt line: Given the entry Cc1ccc(C)cc1 [1,4-dimethylbenzene] + O=S(=O)([N-]S(=O)(=O)C(F)(F)F)C(F)(F)F.O=S(=O)([N-]S(=O)(=O)C(F)(F)F)C(F)(F)F.O=S(=O)([N-]S(=O)(=O)C(F)(F)F)C(F)(F)F.c1ccc2cc(-n3cc[n+](Cc4cc(C[n+]5ccn(-c6ccc7ccccc7c6)c5)cc(C[n+]5ccn(-c6ccc7ccccc7c6)c5)c4)c3)ccc2c1 , would its reported activity coefficient be below 1?
Response line: NOT MET

Prompt line: Say whether its activity coefficient is strictly beneath 1. Entry: CC#N [acetonitrile] + O=S(=O)([N-]S(=O)(=O)C(F)(F)F)C(F)(F)F.O=S(=O)([N-]S(=O)(=O)C(F)(F)F)C(F)(F)F.O=S(=O)([N-]S(=O)(=O)C(F)(F)F)C(F)(F)F.c1ccc2cc(-n3cc[n+](Cc4cc(C[n+]5ccn(-c6ccc7ccccc7c6)c5)cc(C[n+]5ccn(-c6ccc7ccccc7c6)c5)c4)c3)ccc2c1
Response line: MET

Prompt line: Does the reported activity coefficient of O=C1CCCC1 [cyclopentanone] + O=S(=O)([N-]S(=O)(=O)C(F)(F)F)C(F)(F)F.O=S(=O)([N-]S(=O)(=O)C(F)(F)F)C(F)(F)F.O=S(=O)([N-]S(=O)(=O)C(F)(F)F)C(F)(F)F.c1ccc2cc(-n3cc[n+](Cc4cc(C[n+]5ccn(-c6ccc7ccccc7c6)c5)cc(C[n+]5ccn(-c6ccc7ccccc7c6)c5)c4)c3)ccc2c1 stay below 1?
Response line: MET

Prompt line: # strict comparison: is reported activity coefficient < 1? input = C1CCCCC1 [cyclohexane] + O=S(=O)([N-]S(=O)(=O)C(F)(F)F)C(F)(F)F.O=S(=O)([N-]S(=O)(=O)C(F)(F)F)C(F)(F)F.O=S(=O)([N-]S(=O)(=O)C(F)(F)F)C(F)(F)F.c1ccc2cc(-n3cc[n+](Cc4cc(C[n+]5ccn(-c6ccc7ccccc7c6)c5)cc(C[n+]5ccn(-c6ccc7ccccc7c6)c5)c4)c3)ccc2c1
Response line: NOT MET

Prompt line: I'd appreciate it if you could check whether Cc1ccccc1C [1,2-dimethylbenzene] + O=S(=O)([N-]S(=O)(=O)C(F)(F)F)C(F)(F)F.O=S(=O)([N-]S(=O)(=O)C(F)(F)F)C(F)(F)F.O=S(=O)([N-]S(=O)(=O)C(F)(F)F)C(F)(F)F.c1ccc2cc(-n3cc[n+](Cc4cc(C[n+]5ccn(-c6ccc7ccccc7c6)c5)cc(C[n+]5ccn(-c6ccc7ccccc7c6)c5)c4)c3)ccc2c1 has activity coefficient smaller than 1.
Response line: NOT MET

* * *

# protocol_notes: activity coefficient (dimensionless); of the first substance listed, at infinite dilution; xn = mol fraction of the nth substance listed
# test_context: 343 K; 101.33 kPa; Liquid; Chromatography; x1 = 0
Record form. Attribute: activity coefficient. Fill in for each entry.
Please state the value as a number alone, without comment.

Prompt line: Please give measured activity coefficient of the following entry: C1COCCO1 [1,4-dioxane] + O=S(=O)([N-]S(=O)(=O)C(F)(F)F)C(F)(F)F.O=S(=O)([N-]S(=O)(=O)C(F)(F)F)C(F)(F)F.O=S(=O)([N-]S(=O)(=O)C(F)(F)F)C(F)(F)F.c1ccc2cc(-n3cc[n+](Cc4cc(C[n+]5ccn(-c6ccc7ccccc7c6)c5)cc(C[n+]5ccn(-c6ccc7ccccc7c6)c5)c4)c3)ccc2c1
Response line: 0.262

Prompt line: Report measured activity coefficient; entry is CCCCCCC [heptane] + O=S(=O)([N-]S(=O)(=O)C(F)(F)F)C(F)(F)F.O=S(=O)([N-]S(=O)(=O)C(F)(F)F)C(F)(F)F.O=S(=O)([N-]S(=O)(=O)C(F)(F)F)C(F)(F)F.c1ccc2cc(-n3cc[n+](Cc4cc(C[n+]5ccn(-c6ccc7ccccc7c6)c5)cc(C[n+]5ccn(-c6ccc7ccccc7c6)c5)c4)c3)ccc2c1
Response line: 6.03

* * *

So I've got a bunch of compounds here, and I need their activity coefficient values.
# protocol_notes: activity coefficient (dimensionless); of the first substance listed, at infinite dilution; xn = mol fraction of the nth substance listed
# test_context: 323 K; 101.33 kPa; Liquid; Chromatography; x1 = 0
Answer with the value's number alone.

Prompt line: // Input: O=C1CCCC1 [cyclopentanone] + O=S(=O)([N-]S(=O)(=O)C(F)(F)F)C(F)(F)F.O=S(=O)([N-]S(=O)(=O)C(F)(F)F)C(F)(F)F.O=S(=O)([N-]S(=O)(=O)C(F)(F)F)C(F)(F)F.c1ccc2cc(-n3cc[n+](Cc4cc(C[n+]5ccn(-c6ccc7ccccc7c6)c5)cc(C[n+]5ccn(-c6ccc7ccccc7c6)c5)c4)c3)ccc2c1 . Output its activity coefficient only.
Response line: 0.296

Prompt line: Recall and state the measured activity coefficient for CCCCCCCC [octane] + O=S(=O)([N-]S(=O)(=O)C(F)(F)F)C(F)(F)F.O=S(=O)([N-]S(=O)(=O)C(F)(F)F)C(F)(F)F.O=S(=O)([N-]S(=O)(=O)C(F)(F)F)C(F)(F)F.c1ccc2cc(-n3cc[n+](Cc4cc(C[n+]5ccn(-c6ccc7ccccc7c6)c5)cc(C[n+]5ccn(-c6ccc7ccccc7c6)c5)c4)c3)ccc2c1 .
Response line: 19.4

Prompt line: Fill in reported activity coefficient for this entry: c1ccccc1 [benzene] + O=S(=O)([N-]S(=O)(=O)C(F)(F)F)C(F)(F)F.O=S(=O)([N-]S(=O)(=O)C(F)(F)F)C(F)(F)F.O=S(=O)([N-]S(=O)(=O)C(F)(F)F)C(F)(F)F.c1ccc2cc(-n3cc[n+](Cc4cc(C[n+]5ccn(-c6ccc7ccccc7c6)c5)cc(C[n+]5ccn(-c6ccc7ccccc7c6)c5)c4)c3)ccc2c1
Response line: 1.88

Prompt line: Tell us which activity coefficient value is on record for C1COCCO1 [1,4-dioxane] + O=S(=O)([N-]S(=O)(=O)C(F)(F)F)C(F)(F)F.O=S(=O)([N-]S(=O)(=O)C(F)(F)F)C(F)(F)F.O=S(=O)([N-]S(=O)(=O)C(F)(F)F)C(F)(F)F.c1ccc2cc(-n3cc[n+](Cc4cc(C[n+]5ccn(-c6ccc7ccccc7c6)c5)cc(C[n+]5ccn(-c6ccc7ccccc7c6)c5)c4)c3)ccc2c1
Response line: 0.34

Prompt line: Name the recorded activity coefficient of the item CC(C)O [propan-2-ol] + O=S(=O)([N-]S(=O)(=O)C(F)(F)F)C(F)(F)F.O=S(=O)([N-]S(=O)(=O)C(F)(F)F)C(F)(F)F.O=S(=O)([N-]S(=O)(=O)C(F)(F)F)C(F)(F)F.c1ccc2cc(-n3cc[n+](Cc4cc(C[n+]5ccn(-c6ccc7ccccc7c6)c5)cc(C[n+]5ccn(-c6ccc7ccccc7c6)c5)c4)c3)ccc2c1 in your answer.
Response line: 1.24

Prompt line: Supply activity coefficient value. Item: CCCO [propan-1-ol] + O=S(=O)([N-]S(=O)(=O)C(F)(F)F)C(F)(F)F.O=S(=O)([N-]S(=O)(=O)C(F)(F)F)C(F)(F)F.O=S(=O)([N-]S(=O)(=O)C(F)(F)F)C(F)(F)F.c1ccc2cc(-n3cc[n+](Cc4cc(C[n+]5ccn(-c6ccc7ccccc7c6)c5)cc(C[n+]5ccn(-c6ccc7ccccc7c6)c5)c4)c3)ccc2c1
Response line: 1.1

* * *

# protocol_notes: activity coefficient (dimensionless); of the first substance listed, at infinite dilution; xn = mol fraction of the nth substance listed
# test_context: 343 K; 101.33 kPa; Liquid; Chromatography; x1 = 0
metric: activity coefficient
Just the number.

Prompt line: Give the value of activity coefficient reported for the following: CC#N [acetonitrile] + O=S(=O)([N-]S(=O)(=O)C(F)(F)F)C(F)(F)F.O=S(=O)([N-]S(=O)(=O)C(F)(F)F)C(F)(F)F.O=S(=O)([N-]S(=O)(=O)C(F)(F)F)C(F)(F)F.c1ccc2cc(-n3cc[n+](Cc4cc(C[n+]5ccn(-c6ccc7ccccc7c6)c5)cc(C[n+]5ccn(-c6ccc7ccccc7c6)c5)c4)c3)ccc2c1
Response line: 0.181

* * *

Please respond with reported activity coefficient for every item in the list.
# protocol_notes: activity coefficient (dimensionless); of the first substance listed, at infinite dilution; xn = mol fraction of the nth substance listed
# test_context: 313 K; 101.33 kPa; Liquid; Chromatography; x1 = 0
// no unit string in output, number only

Prompt line: Retrieve activity coefficient measured for CCCC(C)=O [pentan-2-one] + O=S(=O)([N-]S(=O)(=O)C(F)(F)F)C(F)(F)F.O=S(=O)([N-]S(=O)(=O)C(F)(F)F)C(F)(F)F.O=S(=O)([N-]S(=O)(=O)C(F)(F)F)C(F)(F)F.c1ccc2cc(-n3cc[n+](Cc4cc(C[n+]5ccn(-c6ccc7ccccc7c6)c5)cc(C[n+]5ccn(-c6ccc7ccccc7c6)c5)c4)c3)ccc2c1 and print it.
Response line: 0.54

Prompt line: Using the record for CCCC=O [butanal] + O=S(=O)([N-]S(=O)(=O)C(F)(F)F)C(F)(F)F.O=S(=O)([N-]S(=O)(=O)C(F)(F)F)C(F)(F)F.O=S(=O)([N-]S(=O)(=O)C(F)(F)F)C(F)(F)F.c1ccc2cc(-n3cc[n+](Cc4cc(C[n+]5ccn(-c6ccc7ccccc7c6)c5)cc(C[n+]5ccn(-c6ccc7ccccc7c6)c5)c4)c3)ccc2c1 , state its measured activity coefficient.
Response line: 0.425

Prompt line: Complete the entry with activity coefficient for CCOC(C)=O [ethyl acetate] + O=S(=O)([N-]S(=O)(=O)C(F)(F)F)C(F)(F)F.O=S(=O)([N-]S(=O)(=O)C(F)(F)F)C(F)(F)F.O=S(=O)([N-]S(=O)(=O)C(F)(F)F)C(F)(F)F.c1ccc2cc(-n3cc[n+](Cc4cc(C[n+]5ccn(-c6ccc7ccccc7c6)c5)cc(C[n+]5ccn(-c6ccc7ccccc7c6)c5)c4)c3)ccc2c1
Response line: 1.02
